tested on: MDR P. aeruginosa clinical isolate 035B7-1; experiment: Minimum inhibitory concentration (MIC) assay; assay type: cell-based, Pseudomonas aeruginosa; settings: MHB, 10^5 CFU/well, peptide 0-50 μM, 37 °C, 20 h, OD600; average of n = 6 replicates from N = 3 biological experiments; asterisk = beyond 50 μM
So basically, if MIC, Isolate 035B7-1 comes in under 3 µM it's label 1, and if it's 3 µM or more it's label 0.

Past entries and their recorded results:
H-KKKKKKWLGSALIGALLPSVVGLFQ-NH2 [PonN]; label 1
H-WAGSAAIGALLPSVVGLFQKKKKKK-NH2 [PonC 2A]; label 0
H-WAGSAAIGAALPSVVGLFQKKKKKK-NH2 [PonC 3A]; label 0
H-WLKKALKIGAKLLPSVVKLFKGSGQ-NH2 [PonAmp]; label 1
H-KKKKKKWAGSAAIGALLPSVVGLFQ-NH2 [PonN 2A]; label 1
H-WLGSALKIGAKLLPSVVGLFKKKKQ-NH2 [Ponericin W1, reference compound]; label 1
H-KKKKKKWAGSAAIGAALPSVVGLFQ-NH2 [PonN 3A]; label 0
H-WLGSALIGALLPSVVGLFQKKKKKK-NH2 [PonC]; label 1

Turning to the following substance.
Problem: Item H-WAKKAAKIGAKLLPSVVKLFKGSGQ-NH2 [PonAmp 2A] : MIC, Isolate 035B7-1 beneath 3 µM, strictly?
Result: label 0
